So I've got a bunch of compounds here, and I need their Ki values.
Target: UniProt:P29466
Test: Caspase-1 enzyme inhibition (Ki)
Assay type: biochemical
Details: substrate Suc-YVAD-pNA 80 μM, 37° C., pH 7.5

Worked examples, 6 compounds total:
Compound	Value
C[C@H](NC(=O)C(=O)c1ccccc1)C(=O)N1CC(F)(F)C[C@H]1C(=O)N[C@H](C=O)CC(=O)O [Example 27c]	10 to 1000 nM
Nc1ccc(C(=O)NCC(=O)N2CC(F)(F)C[C@H]2C(=O)N[C@H](C=O)CC(=O)O)cc1Cl	10 to 1000 nM
O=C[C@H](CC(=O)O)NC(=O)[C@@H]1CCCN1C(=O)[C@H](Cc1cccnc1)NC(=O)c1nccc2ccccc12 [Example 20f]	< 10 nM
C[C@H](NC(=O)c1cccc2ccccc12)C(=O)N1CC(F)(F)C[C@H]1C(=O)N[C@H](C=O)CC(=O)O [Example 27f]	10 to 1000 nM
CC(C)[C@H](NC(=O)c1ccccc1C(=O)c1ccccc1)C(=O)N1CCC[C@H]1C(=O)N[C@H](C=O)CC(=O)O	10 to 1000 nM
CC(C)[C@H](NC(=O)C(c1ccc(Cl)cc1)c1ccc(Cl)cc1)C(=O)N1CCC[C@H]1C(=O)N[C@H](C=O)CC(=O)O	10 to 1000 nM

// switching to the query compound
Q: Answer with reported Ki of C[C@H](NC(=O)c1cccc2ccccc12)C(=O)N[C@@H](C)C(=O)N[C@H](C=O)CC(=O)O [Example 29d]
A: < 10 nM

* * *

So I've got a bunch of compounds here, and I need their Ki values.
Target: Caspase-1 (Homo sapiens)
Test: Caspase-1 enzyme inhibition (Ki)
Type: biochemical
Conditions: substrate Suc-YVAD-pNA 80 μM, 37° C., pH 7.5

Return reported Ki values for all items listed beneath this line.
1. COCC(=O)N1CCN(C(=O)[C@H](C)NC(=O)c2nccc3ccccc23)[C@H](C(=O)N[C@H](C=O)CC(=O)O)C1 [Example 18a]
2. C[C@H](NC(=O)c1nccc2ccccc12)C(=O)N[C@@H](C)C(=O)N[C@H](C=O)CC(=O)O [Example 29c]
3. C[C@H](NC(=O)c1cccc(C#N)c1)C(=O)N1CCC[C@H]1C(=O)N[C@H](C=O)CC(=O)O
4. CC(C)NC(=O)N1CCN(C(=O)[C@H](C)NC(=O)c2nccc3ccccc23)[C@H](C(=O)N[C@H](C=O)CC(=O)O)C1 [Example 18e]

A:
["10 to 1000 nM", "< 10 nM", "10 to 1000 nM", "< 10 nM"]

* * *

So I've got a bunch of molecules here, and I need their Ki values.
Target: Caspase-1 (Homo sapiens)
Sequence (P29466 120-297 limits assumed): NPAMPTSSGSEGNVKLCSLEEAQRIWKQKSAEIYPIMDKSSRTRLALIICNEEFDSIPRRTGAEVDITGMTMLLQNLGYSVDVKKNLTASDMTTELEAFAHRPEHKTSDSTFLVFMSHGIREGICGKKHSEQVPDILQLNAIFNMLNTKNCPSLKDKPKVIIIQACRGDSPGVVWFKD
Sequence (P29466 317-404 limits assumed): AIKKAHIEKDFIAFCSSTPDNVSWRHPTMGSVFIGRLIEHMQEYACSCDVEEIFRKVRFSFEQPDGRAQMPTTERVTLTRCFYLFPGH
Test: Caspase-1 enzyme inhibition (Ki)
Type: biochemical
Conditions: substrate Suc-YVAD-pNA 80 μM, 37° C., pH 7.5

Worked examples, 6 molecules total:
Molecule	Measurement Target	Ki
CC(C)[C@H](NC(=O)c1nccc2ccccc12)C(=O)N1CC[C@H](C)[C@H]1C(=O)N[C@H](C=O)CC(=O)O [Example 26c]	Caspase-1 (Homo sapiens)	< 10 nM
C[C@H](NC(=O)[C@@H](NC(=O)c1cccc2ccccc12)C(C)(C)C)C(=O)N[C@H](C=O)CC(=O)O [Example 29k]	Caspase-1 (Homo sapiens)	< 10 nM
CC(C)[C@H](NC(=O)c1cccc2ccccc12)C(=O)N[C@@H](C)C(=O)N[C@H](C=O)CC(=O)O [Example 29f]	Caspase-1 (Homo sapiens)	< 10 nM
CC(C)[C@H](NC(=O)c1ccc2c(c1)C(=O)c1ccccc1-2)C(=O)N1CCC[C@H]1C(=O)N[C@H](C=O)CC(=O)O	Caspase-1 (Homo sapiens)	< 10 nM
C[C@H](NC(=O)c1ccc(NS(C)(=O)=O)cc1)C(=O)N1CCC[C@H]1C(=O)N[C@H](C=O)CC(=O)O	Caspase-1 (Homo sapiens)	10 to 1000 nM
CC(C)[C@H](NC(=O)c1csc(C2COc3ccccc3O2)n1)C(=O)N1CCC[C@H]1C(=O)N[C@H](C=O)CC(=O)O (stereo partly shown)	Caspase-1 (Homo sapiens)	10 to 1000 nM

// switching to the query molecule
Q: Answer with reported Ki of Cc1cc(C(=O)N[C@@H]2CCN([C@@H](CC(C)C)C(=O)N[C@H](C=O)CC(=O)O)C2=O)cc(C)c1O [Example 32b]
A: > 1000 nM

* * *

Biological target: UniProt P29466
Sequence (P29466 120-297 limits assumed): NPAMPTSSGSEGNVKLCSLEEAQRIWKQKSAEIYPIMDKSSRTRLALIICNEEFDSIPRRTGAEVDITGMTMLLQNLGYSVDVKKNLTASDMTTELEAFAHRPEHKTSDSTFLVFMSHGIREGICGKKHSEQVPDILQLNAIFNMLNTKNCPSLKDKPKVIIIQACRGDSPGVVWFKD
Sequence (P29466 317-404 limits assumed): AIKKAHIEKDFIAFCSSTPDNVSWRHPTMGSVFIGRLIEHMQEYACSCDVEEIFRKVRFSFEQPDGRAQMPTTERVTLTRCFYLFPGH
Experiment: Caspase-1 enzyme inhibition (Ki)
Format: biochemical
Conditions: substrate Suc-YVAD-pNA 80 μM, 37° C., pH 7.5
So I've got a bunch of compounds here, and I need their Ki values.

Return reported Ki values for all items listed beneath this line.
1. CC(C)(C)[C@H](NC(=O)c1cccc2ccccc12)C(=O)N1CCC[C@H]1C(=O)N[C@H](C=O)CC(=O)O [Example 20b]
2. COc1cccc(Oc2ccc(OC)cc2C(=O)N[C@H](C(=O)N2CCC[C@H]2C(=O)N[C@H](C=O)CC(=O)O)C(C)C)c1
3. COc1ccc(C(=O)N[C@H](C(=O)N2C[C@H](NC(C)=O)C[C@H]2C(=O)N[C@H](C=O)CC(=O)O)C(C)C)cc1

A:
1. < 10 nM
2. < 10 nM
3. 10 to 1000 nM

* * *

So I've got a bunch of compounds here, and I need their Ki values.
Biological target: Caspase-1 (Homo sapiens, UniProt P29466)
Sequence (P29466 120-297 limits assumed): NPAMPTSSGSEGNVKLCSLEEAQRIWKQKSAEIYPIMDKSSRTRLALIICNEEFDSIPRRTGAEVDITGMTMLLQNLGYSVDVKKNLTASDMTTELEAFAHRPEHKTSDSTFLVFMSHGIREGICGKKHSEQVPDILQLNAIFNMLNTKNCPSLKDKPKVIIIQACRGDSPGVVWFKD
Sequence (P29466 317-404 limits assumed): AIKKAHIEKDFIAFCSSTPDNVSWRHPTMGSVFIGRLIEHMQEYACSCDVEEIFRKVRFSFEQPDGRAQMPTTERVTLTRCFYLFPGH
Test: Caspase-1 enzyme inhibition (Ki)
Assay type: biochemical
Details: substrate Suc-YVAD-pNA 80 μM, 37° C., pH 7.5

Worked examples, 8 compounds total:
Compound	Ki
CC(=O)Nc1ccc(C(=O)N[C@@H](C)C(=O)N2CCC[C@H]2C(=O)N[C@H](C=O)CC(=O)O)cc1Cl [Example 122f]	< 0.01 µM
CC(C)[C@H](NC(=O)c1cnnc2ccccc12)C(=O)N1CCC[C@H]1C(=O)N[C@H](C=O)CC(=O)O	0.01 to 1 µM
CC(C)[C@H](NC(=O)c1nccc2ccccc12)C(=O)N1CCNCC1C(=O)N[C@H](C=O)CC(=O)O (some centres unmarked) [Example 15b]	< 0.01 µM
CC(C)[C@H](NC(=O)c1cc(Cl)c(O)c(Cl)c1)C(=O)N1CCC[C@H]1C(=O)N[C@H](C=O)CC(=O)O	< 0.01 µM
CC(=O)N1CCN(C(=O)[C@H](C)NC(=O)c2nccc3ccccc23)[C@H](C(=O)N[C@H](C=O)CC(=O)O)C1 [Example 18d]	0.01 to 1 µM
CC(C)[C@H](NC(=O)c1ccc(C(C)(C)C)cc1)C(=O)N1CCC[C@H]1C(=O)N[C@H](C=O)CC(=O)O	< 0.01 µM
CC(C)[C@H](NC(=O)c1ccc(N)c(Cl)c1)C(=O)N1CCN(C)C[C@H]1C(=O)N[C@H](C=O)CC(=O)O [Example 17a]	0.01 to 1 µM
C[C@H](NC(=O)c1ccc(N(C)C)c(Cl)c1)C(=O)N1CCC[C@H]1C(=O)N[C@H](C=O)CC(=O)O [Example 122m]	0.01 to 1 µM

Return reported Ki values for all items listed beneath this line.
1. COc1ccc(C(=O)NC(C(=O)N2N=C(C(C)(C)C)SC2C(=O)NC(C=O)CC(=O)O)C(C)C)cc1 (centres unmarked) [Example 46b]
2. CC(C)(C)[C@H](NC(=O)c1nccc2ccccc12)C(=O)N1CCC[C@H]1C(=O)N[C@H](C=O)CC(=O)O [Example 20a]
3. CC(=O)NC(CC(=O)O)C(=O)NC1CCN(C(CC(C)C)C(=O)NC(C=O)CC(=O)O)C1=O (centres unmarked) [Example 32d]
4. COc1c(Cl)cc(C(=O)N[C@@H](C)C(=O)N2CCC[C@H]2C(=O)N[C@H](C=O)CC(=O)O)cc1Cl [Example 122c]
5. CC(C)[C@H](NC(=O)c1ccccc1)C(=O)N1CC[C@H](C)[C@H]1C(=O)N[C@H](C=O)CC(=O)O [Example 26a]
6. CC(=O)Nc1ccc(C(=O)NC(C)C(=O)N2CC(F)(F)CC2C(=O)NC(C=O)CC(=O)O)cc1Cl (centres unmarked) [Example 123b]

A:
1. < 0.01 µM
2. < 0.01 µM
3. > 1 µM
4. < 0.01 µM
5. < 0.01 µM
6. 0.01 to 1 µM
